Target: T1, Rhesus macaque CD4-HIS (Acro Biosystems, Cat. CD4-C52H7) (rhesus macaque, UniProt P16003 26-390)
T1 construct: Bought reagent; also called Rhesus CD4; rhesus CD4-HIS; not shown: His tag
T1 sequence (P16003 26-390 limits assumed): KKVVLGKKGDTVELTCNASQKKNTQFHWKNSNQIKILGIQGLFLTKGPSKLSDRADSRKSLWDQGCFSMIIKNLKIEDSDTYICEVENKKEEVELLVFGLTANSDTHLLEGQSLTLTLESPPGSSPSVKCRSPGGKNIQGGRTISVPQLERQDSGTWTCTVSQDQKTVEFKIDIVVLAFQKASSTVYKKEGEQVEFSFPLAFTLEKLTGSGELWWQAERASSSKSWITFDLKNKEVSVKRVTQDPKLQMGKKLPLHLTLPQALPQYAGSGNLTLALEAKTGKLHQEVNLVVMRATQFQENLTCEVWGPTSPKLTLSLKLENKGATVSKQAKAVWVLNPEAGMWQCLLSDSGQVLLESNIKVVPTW
Assay: BLI Octet, mAb on anti-mouse Fc sensor, rhesus CD4-HIS 25-100 nM, 1:1 global fit;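 further: purified antibodies captured at 10 µg/mL, rhesus CD4 analyte run as a three-concentration serial dilution, irrelevant antibody as reference control, one kinetic constant set per antibody from global fitting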
Items are presented alongside their recorded Response.
The reply should be a number, written without any unit.

Exercise: Can you look up the measured Response of 75110_02E22A (antibody, V domains shown, Tested as antibody purified from AlivaMab Mouse hybridoma supernatant (captured by anti-mouse IgG Fc)) VH: QVQLQESGPGLVKPSETLSLTCTVSGGSISSFYWSWIRQPAGKGLEWIGRIYTSGSTNYNPSLKSRVTMSVDTSKNQFSLKLSSVTAADTAVYYCARELEKRNYYGMDVWGQGTTVTVSS VL: DIQMTQSPSSLSASVGDRVTITCQASHDISNYLNWYQQKPGKAPKLLIFDASTLETGVPSRFSGSGSGTYFTFTIRSLQPEDIATYYCQQYDSLPLTFGGGTKVEIK for me?
Solution: 0.15

Exercise: Same thing, different binder: 75110_04F22A (antibody, V domains shown, Tested as antibody purified from AlivaMab Mouse hybridoma supernatant (captured by anti-mouse IgG Fc)) VH: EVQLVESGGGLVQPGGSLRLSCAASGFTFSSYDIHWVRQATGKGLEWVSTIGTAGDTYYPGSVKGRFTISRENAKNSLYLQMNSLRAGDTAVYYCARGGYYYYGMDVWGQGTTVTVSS VL: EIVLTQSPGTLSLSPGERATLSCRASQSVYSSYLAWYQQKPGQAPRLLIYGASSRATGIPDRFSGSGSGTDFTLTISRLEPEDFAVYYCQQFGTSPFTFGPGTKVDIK
Solution: 0.04

Turning now to a further record.
Exercise: Can you look up the measured Response of 75110_05E05A (antibody, V domains shown, Tested as antibody purified from AlivaMab Mouse hybridoma supernatant (captured by anti-mouse IgG Fc)) VH: QVQLQESGPGLVKPSETLSLTCTVSGGSIGSYYWSWIRQPAGKGLEWIGRIYTSGSTNYNPSLKSRVTMSFDTSKNQFSLKLNSVTAADTAVYYCATDGGVGDSLDYWGQGTLVTVSS VL: DIVMTQTPLSLPVTPGEPASISCRSSQSLLDSDDGNTYLDWYLQKPGQSPQLLIYTLSYRASGVPDRFSGSGSGTDFTLKISRVEAEDVGVYYCMQHIEFPFTFGPGTKVDIK for me?
Solution: 0.06
